This collection of values is drawn from the supplement of paper PMC12667976.

B1: library; numbered along this chain (parent)
chain: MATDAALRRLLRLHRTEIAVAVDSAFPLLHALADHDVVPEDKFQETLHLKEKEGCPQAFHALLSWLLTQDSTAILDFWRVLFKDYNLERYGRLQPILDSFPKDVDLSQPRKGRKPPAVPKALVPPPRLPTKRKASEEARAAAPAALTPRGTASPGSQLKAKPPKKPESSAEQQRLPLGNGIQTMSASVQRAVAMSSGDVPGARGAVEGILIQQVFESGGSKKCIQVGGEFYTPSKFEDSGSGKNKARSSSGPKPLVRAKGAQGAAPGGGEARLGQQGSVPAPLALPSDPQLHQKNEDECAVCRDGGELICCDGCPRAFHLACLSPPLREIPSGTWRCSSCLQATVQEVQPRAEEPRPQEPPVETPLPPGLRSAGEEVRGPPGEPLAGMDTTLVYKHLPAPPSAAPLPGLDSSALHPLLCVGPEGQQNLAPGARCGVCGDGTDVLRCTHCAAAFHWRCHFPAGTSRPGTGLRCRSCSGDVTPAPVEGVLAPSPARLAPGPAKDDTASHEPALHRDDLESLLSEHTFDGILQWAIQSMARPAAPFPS

Variants of: B1
Experiment: AIRE transcriptional activation functional score (insulin promoter-GFP; nonsense median 0, synonymous median 1) (normalised score); higher = higher AIRE activity (more reporter activation)
Settings: with insulin promoter-GFP reporter in HEK293
Quick list: AIRE transcriptional activation functional score per entry.
Write the value as a bare number.

Sample answers from the record:
P490N: 0.697
R127F: 0.897
D442Y: 0.265
F77D: -0.0172
H292L: 0.55

Attention now turns to another entry.
input: Please give the documented AIRE transcriptional activation functional score of P129R
output: 0.451
